All values here come from PubChem BioAssay AID1159580.

- Test description: chemical genetic growth profiling, strain panel (AID 1159580);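 note: tested at 20 µM; growth read once vehicle control cultures reached saturation at 30 °C; 1 = growth at the plate median or of vehicle wells; lower values mean less growth of the strain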
- Details: S. cerevisiae deletion strains, growth OD, locus YLR268W, strain sec22
Among all 5,500 compounds or so, about 2,000 (36%) were called active. Another 18% or so got no clear call; they are omitted. Cut-off read from the data, not from the text of the source: active = normalized growth mostly below about 0.91 (no sharp cut-off); inconclusive = no clear call, values can overlap the other calls; inactive = mostly above about 0.92. The list shows a part of the results.
Classes used: label 1 (active), label 0 (inactive)

| Compound | Discrete label |
| --- | --- |
| CCCCC(CC)CN=C(N)NC(N)=NCCCCCCN=C(N)NC(N)=NCC(CC)CCCC (stereo unspecified) | label 1 |
| CCCSP(=O)(OCC)SCCC | label 0 |
| c1ccc2[nH]c(-c3cscn3)nc2c1 | label 0 |
| CC(COc1ccccc1)N(CCCl)Cc1ccccc1 (stereo unspecified) | label 0 |
| C=CC1=C(C)/C(=C/c2[nH]c(Cc3[nH]c(/C=C4\NC(=O)C(C)=C4C=C)c(C)c3CCC(=O)O)c(CCC(=O)O)c2C)NC1=O | label 0 |
| CCCNC(C)C(=O)Nc1ccccc1C (stereo unspecified) | label 0 |

###

- Test description: chemical genetic growth profiling, strain panel (AID 1159580);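 note: tested at 20 µM; growth read once vehicle control cultures reached saturation at 30 °C; 1 = growth at the plate median or of vehicle wells; lower values mean less growth of the strain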
- Details: S. cerevisiae deletion strains, growth OD, locus YML032C, strain rad52, stronger effect = lower value
About 2,000 (36%) of roughly 5,500 compounds were called active. Inconclusive results (about 18%) are left out. Some of the results follow.
normalized growth values by entry

| Compound | normalized growth |
| --- | --- |
| O=C(O)CNCP(=O)(O)O | 1.01 (inactive) |
| C[C@H](COc1ccccc1)N[C@H](C)[C@H](O)c1ccc(O)cc1 | 0.999 (inactive) |
| S=c1[nH]c2ccccc2s1 | 1 (inactive) |
| CC(COc1ccccc1)N(CCCl)Cc1ccccc1 (configuration not stated) | 1.02 (inactive) |
| COS(C)(=O)=O | 1.03 (inactive) |
| C[C@@H]1CC2C3CCC4=CC(=O)C=C[C@]4(C)[C@@]3(F)[C@@H](O)C[C@]2(C)[C@@]1(O)C(=O)COP(=O)(O)O (some centres not stated) | 0.991 (inactive) |
| COc1cc(C)c2c(c1C=O)Oc1c(c(C)c(O)c3c1C(O)OC3=O)OC2=O (configuration not stated) | 0.985 (inactive) |
| CC(C)C1=CC2=CCC3[C@](C)(CCC[C@]3(C)C(=O)O)C2CC1 (some centres not stated) | 0.949 (inactive) |
| COc1ccc(/C=C/C(=O)O)cc1OC | 1.02 (inactive) |
| CS(=O)(=O)OCCCCOS(C)(=O)=O | 0.97 (inactive) |
| NCCCCN=C(N)N | 1.02 (inactive) |
| CN=C1CN(O)C(c2ccccc2)=c2cc(Cl)ccc2=N1 | 0.989 (inactive) |

###

- Test description: chemical genetic growth profiling, strain panel (AID 1159580);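 note: tested at 20 µM; growth read once vehicle control cultures reached saturation at 30 °C; 1 = growth at the plate median or of vehicle wells; lower values mean less growth of the strain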
- Details: S. cerevisiae deletion strains, growth OD, locus YGR229C, strain SMI1
Screen size: about 5,500 compounds; about 2,000 (36%) were called active. Inconclusive results (about 18%) are left out. Cut-off read from the data, not from the text of the source: active = normalized growth mostly below about 0.91 (no sharp cut-off); inconclusive = no clear call, values can overlap the other calls; inactive = mostly above about 0.92. Some of the results follow.
Labels: 1.0 for active, 0.0 for inactive

| Molecule | Discrete label |
| --- | --- |
| S=c1[nH]c2ccccc2s1 | 1.0 |
| CC[C@@H](C(=O)O)[C@@H]1O[C@@H]([C@@H](C)[C@H](O)[C@H](C)C(=O)[C@H](CC)[C@H]2O[C@]3(C=C[C@@H](O)[C@]4(CC[C@@](C)(C5CC[C@](O)(CC)[C@H](C)O5)O4)O3)[C@H](C)C[C@@H]2C)[C@@H](C)C[C@H]1C (stereo partly drawn) | 1.0 |
| Brc1c(NC2=NCCN2)ccc2nccnc12 | 0.0 |
| CC(=O)c1ccc(-c2ccc(C(C)=O)cc2)cc1 | 0.0 |
| O=C(O)CCNC(=S)Nc1cccc(C(F)(F)F)c1 | 0.0 |
| COC(=O)[C@H]1[C@H]2C[C@@H]3c4[nH]c5cc(OC)ccc5c4CCN3C[C@H]2C[C@@H](OC(=O)c2cc(OC)c(OC)c(OC)c2)[C@@H]1OC | 0.0 |
| Nc1ccc(S(=O)(=O)Nc2nccs2)cc1 | 0.0 |
| CCNS(=O)(=O)c1cc(Cl)sc1Cl | 0.0 |
| CCOC(=O)c1c(N=Cc2cc(Br)c(Br)cc2O)sc2c1CCCC2 | 0.0 |
| CC(Cc1ccc(OCC(=O)O)cc1)NCC(O)c1cccc(Cl)c1 (stereo not drawn) | 0.0 |
| NC(=O)CI | 0.0 |
| COc1ccccc1N1CCN(CCCNc2c(C)c(=O)n(C)c(=O)n2C)CC1 | 0.0 |
| COc1ccc(CN(Cc2ccc(OC)cc2)C(=O)c2cccs2)cc1 | 0.0 |
| CCC(CO)NC(=O)C1C=C2c3cccc4c3c(cn4C)CC2N(C)C1 (stereo not drawn) | 0.0 |
| COS(C)(=O)=O | 0.0 |
| CN1CCc2cc(NC(=O)Nc3cccnc3)ccc21 | 0.0 |
| COc1ccc(-c2cc(C(F)F)nn2-c2ccc(S(N)(=O)=O)cc2)cc1F | 0.0 |
| CC(=O)O[C@H]1CC[C@@]2(C)C(=CCC3C2CC[C@]2(C)C(=O)CCC32)C1 (stereo partly drawn) | 0.0 |
| COc1nc(N)nc(SC)n1 | 0.0 |
| CN=C1CN(O)C(c2ccccc2)=c2cc(Cl)ccc2=N1 | 0.0 |
| CCC(=O)c1ccc(-c2ccccc2)cc1 | 0.0 |
| CCOC(N)=O | 0.0 |
| COc1cc(C(=O)O)c(O)c2c1OCO2 | 0.0 |
